# System Name: DNMT2 (Homo sapiens, UniProt O14717)
# Construct: Recombinant human DNMT2 (full-length); His-tag; made in house; host or cells: E. coli
# Sequence (O14717 whole entry): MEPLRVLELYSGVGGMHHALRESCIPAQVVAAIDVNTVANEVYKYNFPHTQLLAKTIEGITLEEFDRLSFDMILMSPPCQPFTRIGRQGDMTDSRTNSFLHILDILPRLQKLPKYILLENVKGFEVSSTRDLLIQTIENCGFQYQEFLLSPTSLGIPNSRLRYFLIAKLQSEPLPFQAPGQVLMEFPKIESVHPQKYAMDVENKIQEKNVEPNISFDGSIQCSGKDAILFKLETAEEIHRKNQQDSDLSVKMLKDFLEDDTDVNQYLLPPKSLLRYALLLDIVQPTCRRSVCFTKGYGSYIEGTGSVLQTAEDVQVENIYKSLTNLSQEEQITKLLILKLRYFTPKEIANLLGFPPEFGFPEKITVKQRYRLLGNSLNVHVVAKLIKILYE
# Experiment: MST displacement assay with fluorescent FTAD probe
# Format: binding
# Setup Conditions: ligand 100 μM, FTAD probe
# Description: Screening for ligand binding and evaluation of dose-response affinity profiles was performed via microscale thermophoresis (MST) as described previously.[42] The measurements were conducted with a Nanotemper Technologies Monolith NT.115 device. All samples were measured in Monolith standard capillaries at 25 °C. […]
Quantity Kind: Fnorm (% displ.): FTAD displacement (%)
Give the quantity in %, number only.

API: value(readout=Fnorm (% displ.): FTAD displacement, system=DNMT2 (Homo sapiens, UniProt O14717)) for record CCc1ccc(C(=O)NC2(C(=O)N[C@@H](CC(=O)NCC(N)=O)Cc3c[nH]c4ccccc34)CC2)cc1 [Compound 26]
5

Same thing, different compound: CCc1ccc(C(=O)NCC2(C(=O)N[C@@H](CC(=O)NCC(N)=O)Cc3ccccc3)CC2)c(C)c1 [Compound 21]
5

Ok, now CCc1ccc(C(=O)NCC2(C(=O)N[C@@H](CC(=O)NCC(N)=O)Cc3ccc4ccccc4c3)CC2)cc1 [Compound 36]
5

Again, but for CC(=O)NCC1(C(=O)N[C@@H](CC(=O)NCC(N)=O)Cc2ccccc2)CC1 [Compound 23]
5

And then CCc1ccc(C(=O)NCC2(C(=O)N[C@@H](CC(=O)NCC(N)=O)Cc3ccc(O)cc3)CC2)cc1 [Compound 15] , what is it?
5

Further, for CCc1ccc(C(=O)NCC2(C(=O)N(C)[C@@H](CC(=O)NCC(N)=O)Cc3ccccc3)CC2)cc1 [Compound 45] ?
5

Another compound to check: CCc1ccc(C(=O)NCC2(C(=O)N3Cc4ccccc4C[C@@H]3CC(=O)NCC(N)=O)CC2)cc1 [Compound 35]
5

Also check CCc1ccc(C(=O)NCC2(C(=O)N[C@@H](CC(=O)NCC(N)=O)Cc3ccccc3)C[C@H]2C(F)(F)F)cc1 (stereo partly shown) [Compound 28]
8

Now consider CCc1ccc(C(=O)NCC2(C(=O)N[C@H](Cc3c[nH]c4ccccc34)C(=O)NCC(N)=O)CC2)cc1 [Compound 30] .
5

Now give it for CCc1ccc(C(=O)NCC2(C(=O)N[C@@H](CC(=O)N[C@@H](Cc3ccccc3)C(N)=O)Cc3ccccc3)CC2)cc1 [Compound 42] too.
4

Also CCc1ccc(C(=O)NCC2(C(=O)N[C@@H](CC(=O)NCC(N)=O)Cc3ccc(I)cc3)CC2)cc1 [Compound 33] ?
18

Now the compound CCc1ccc(C(=O)NC[C@H](N)C(=O)N[C@@H](CC(=O)NCC(N)=O)Cc2c[nH]c3ccccc23)cc1 [Compound 24]
4

Please answer likewise for CCCc1ccc(C(=O)NCC2(C(=O)N[C@@H](CC(=O)NCC(N)=O)Cc3ccccc3)CC2)cc1 [Compound 12]
23

Now the compound CCc1ccc(C(=O)NCC2(C(=O)N[C@@H](CC(=O)N[C@@H](C)C(N)=O)Cc3ccccc3)CC2)cc1 [Compound 39]
8

Request: CCc1ccc(C(=O)NCC2(C(=O)N[C@@H](CC(=O)N[C@@H](C(N)=O)[C@@H](C)O)Cc3c[nH]c4ccccc34)CC2)cc1 [Compound 41]
6

Field entry: CCc1ccc(C(=O)NCC2(C(=O)N[C@@H](CC(=O)NCC(N)=O)Cc3c[nH]c4ccccc34)CC2)cc1 [Compound 10]
40

Entry to check: NC(=O)CNC(=O)C[C@@H](Cc1ccccc1)NC(=O)C1(CNC(=O)c2ccccc2)CC1 [Compound 18]
7

Please answer likewise for CCc1ccc(C(=O)NCCC(=O)N[C@@H](CC(=O)NCC(N)=O)Cc2c[nH]c3ccccc23)cc1 [Compound 27]
5

Subsequent entry: CCc1ccc(C(=O)NCC2(C(=O)N[C@@H](CC(=O)NCC(=O)NCCOCCOCCOCCOC)Cc3ccccc3)CC2)cc1 [Compound 48]
27

* * *

Please provide measured Fnorm (MST screening) for the entries that follow.
# System Name: DNMT2 (Homo sapiens, UniProt O14717)
# Construct: Recombinant human DNMT2 (full-length); His-tag; made in house; host or cells: E. coli
# Experiment: MST displacement assay with fluorescent FTAD probe
# Assay type: binding
# Set-up: unit not given here
# Setup Conditions: ligand 100 μM, FTAD probe
// return a plain number; no unit text

Requested read-out: Fnorm (MST screening). Entry: CCc1ccc(C(=O)NCC2(C(=O)N[C@@H](CC(=O)N(C)CC(N)=O)Cc3ccccc3)CC2)cc1
868.4

What would you report for CCc1ccc(C(=O)NCC2(C(=O)N[C@H](Cc3c[nH]c4ccccc34)C(=O)NCC(N)=O)CC2)cc1 ?
861.5

Also CCc1ccc(C(=O)NCC2(C(=O)N3Cc4ccccc4C[C@@H]3CC(=O)NCC(N)=O)CC2)cc1 , if possible.
861.5

For CCc1ccc(C(=O)NCC2(C(=O)N[C@@H](CC(=O)NCC(N)=O)Cc3ccccc3)CC2)c(C)c1 then?
862.4

Can you handle CCc1ccc(C(=O)NCC2(C(=O)N[C@@H](CC(=O)NCC(=O)NCCOCCOCCOCCOC)Cc3ccccc3)CC2)cc1 next?
894.1

Item: CCc1ccc(C(=O)NCC2(C(=O)N[C@@H](CC(=O)N[C@H](C)C(N)=O)Cc3ccccc3)CC2)cc1
870.1

Then CCc1ccc(C(=O)NCC2(C(=O)N[C@H](CC(=O)NCC(N)=O)Cc3c[nH]c4ccccc34)CC2)cc1 ?
857.0
